Tested on: Moraxella catarrhalis (ATCC 8176)
Assay: MIC by microbroth dilution, Moraxella catarrhalis ATCC 8176
Format: cell-based
Details: ATCC8176
Endpoint Label: MIC (µg/mL)
The figure you give is taken to be in µg/mL; do not add the unit.

Ask: Entry under review: COc1ccc2ncc(C#N)c(CCN3CCC(NCc4ccc([N+](=O)[O-])o4)CC3)c2c1 . Reported MIC?
Reply: 2

Ask: Entry COc1ccc2ncc(=O)n(CCN3CCC(NCc4csc([N+](=O)[O-])c4)CC3)c2c1 : reported MIC = ?
Reply: 0.5

Ask: Can you share its MIC? I mean this compound: COc1ccc2ncc(C#N)c(CCN3CCC(NCc4csc([N+](=O)[O-])c4)CC3)c2c1
Reply: 0.5

Ask: Fill blank: measured MIC of the compound COc1ccc2ncc(C#N)c(CCN3CCC(NCc4ccc(C)c([N+](=O)[O-])c4)CC3)c2c1 is ____.
Reply: 0.12

Ask: Value lookup for MIC; key = COc1ccc2ncc(C#N)c(CCN3C4CCC3CC(NCc3ccc5c(c3)NCCS5)C4)c2c1 (stereo not drawn) [VT-03-00026a]
Reply: 4

Ask: Could you share which MIC value was measured for COc1ccc2ncc(C#N)c(CCN3C4CCC3CC(NCc3cc5c(cn3)OCS5)C4)c2c1 (stereo not drawn) ?
Reply: 4

Ask: For the compound COc1ccc2ncc(C#N)c(CCN3C4CCC3CC(NCc3ccc5c(c3)OCCO5)C4)c2c1 (stereo not drawn) [VT-03-00021a] , what MIC is on record?
Reply: 2

Ask: What MIC value was documented for this compound, COc1ccc2ncc(C#N)c(CCN3C4CCC3CC(NS(=O)(=O)c3ccc5c(c3)OCCO5)C4)c2c1 (stereo not drawn) ?
Reply: 2

Ask: Could you tell me which MIC is on file for COc1ccc2ncc(C#N)c(CCN3CCC(NCc4ccc(N(C)C)c([N+](=O)[O-])c4)CC3)c2c1 ?
Reply: 0.25

Ask: Which measured MIC value corresponds to COc1ccc2ncc(C#N)c(CCN3CCC(NCc4cc([N+](=O)[O-])ccc4O)CC3)c2c1 ?
Reply: 8

Ask: Any idea what its MIC is? The compound is COc1ccc2ncc(C#N)c(CCN3C[C@@H]4C[C@H]3CN4CNc3ccc4c(c3)OCCO4)c2c1
Reply: 4

Ask: Tell me the measured MIC of COc1ccc2ncc(C#N)c(CCN3CC(CNCc4ccc(C)c([N+](=O)[O-])c4)C3)c2c1 , please.
Reply: 2

Ask: What does the record list as MIC for COc1ccc2ncc(C#N)c(CCN3CCC(NCc4cc5c(c([N+](=O)[O-])c4)OCO5)CC3)c2c1 ?
Reply: 0.25

Ask: // returns reported MIC for input COc1ccc2ncc(C#N)c(CCN3CCC(NCc4ccc(F)c([N+](=O)[O-])c4)CC3)c2c1
Reply: 1

Ask: // lookup MIC for COc1ccc2ncc(C#N)c(CCN3CCC(NC(=O)c4ccc(Cl)c([N+](=O)[O-])c4)CC3)c2c1
Reply: 0.5

Ask: Sample COc1ccc2ncc(=O)n(CCN3CCC(NCc4ccc([N+](=O)[O-])c(C)c4)CC3)c2c1 — what was its MIC?
Reply: 2

Ask: Given the compound COc1ccc2ncc(C#N)c(CCN3C4CCC3CC(NS(=O)(=O)c3ccc5ccccc5c3)C4)c2c1 (stereo not drawn) , what is its reported MIC?
Reply: 4

Ask: For the compound COc1ccc2ncc(C#N)c(CCN3CCC(NCc4cc([N+](=O)[O-])ccc4F)CC3)c2c1 , what MIC is on record?
Reply: 4

Ask: Give its MIC value. Item: COc1ccc2ncc(C#N)c(CCN3CCC(NCc4ccc([N+](=O)[O-])c(F)c4)CC3)c2c1
Reply: 1

Ask: Could you tell me which MIC is on file for COc1ccc2ncc(C#N)c(CCN3C4CCC3CC(NCc3cc5c(cn3)OCCO5)C4)c2c1 (stereo not drawn) ?
Reply: 8

Ask: What value of measured MIC is listed for COc1ccc2ncc(C#N)c(CCN3CCC(NCc4cccc([N+](=O)[O-])c4)CC3)c2c1 ?
Reply: 8

Ask: # query: MIC of entry COc1ccc2ncc(=O)n(CCN3CCC(NCc4ccc(F)c([N+](=O)[O-])c4)CC3)c2c1
Reply: 1

Ask: Name the recorded MIC for COc1ccc2ncc(C#N)c(CCN3C4CCC3CC(NC(=O)c3ccc5c(c3)OCCO5)C4)c2c1 (stereo not drawn) .
Reply: 8

Ask: Which MIC value belongs to COc1ccc2ncc(C#N)c(CCN3C4CCC3CC(NCc3ccc5c(c3)NC(=O)CO5)C4)c2c1 (stereo not drawn) ?
Reply: 1

Ask: Look up MIC for this compound: COc1ccc2ncc(OCCN3CCC(NCc4ccc(C)c([N+](=O)[O-])c4)CC3)nc2c1 [VT-03-00062a]
Reply: 2

Ask: Record request: MIC value, item COc1ccc2ncc(C#N)c(CCN3C4CCC3CC(NCc3ccc5c(c3)NC(=O)CS5)C4)c2c1 (stereo not drawn)
Reply: 2

* * *

Test: Single dose pharmacokinetics in male Swiss albino mice
Assay type: in vivo
Conditions: mouse, in vivo, oral 10 mg/kg vs i.v. 5 mg/kg
Field: bioavailability. Provide a value for each of the compounds that follow.
Give the quantity in %, number only.

Ask: Need bioavailability of Cc1ccc(CNC2CCN(CCn3c(=O)cnc4ccc(F)cc43)CC2)cc1[N+](=O)[O-] [VT-03-00113] , thanks.
Reply: 1.16

Ask: Which value of bioavailability has been reported for Cc1ccc(CNC2CCN(CCn3c(=O)cnc4ccc(F)cc43)CC2)cc1F [VT-03-00122] in the records?
Reply: 7.69

Ask: Tell me the measured bioavailability of COc1ccc2ncc(=S)n(CCN3CCC(NCc4ccc(C)c([N+](=O)[O-])c4)CC3)c2c1 [VT-03-00127] , please.
Reply: 18.8

Ask: What measured bioavailability goes with Cc1ccc(CNC2CCN(CCn3c(=O)cnc4ccc(Cl)nc43)CC2)cc1[N+](=O)[O-] [VT-03-00118] ?
Reply: 1.12

* * *

Assay: Single dose pharmacokinetics in male Swiss albino mice
Assay type: in vivo
Settings: mouse, in vivo, oral, 10 mg/kg b.w., single dose
Endpoint Label: half-life (h)
Kindly provide the numeric value in h only, without the unit symbol.

Ask: Fill blank: measured half-life of the molecule COc1ccc2ncc(C#N)c(CCN3CCC(NCc4ccc(C)c([N+](=O)[O-])c4)CC3)c2c1 [VT-03-00061] is ____.
Reply: 1.74

* * *

Target: E. coli Gyrase (Escherichia coli, UniProt P0AES4+P0AES6)
Construct: purchased Inspiralis
Assay: in vitro Gyrase supercoiling assay (Inspiralis kit)
Format: biochemical
Conditions: 1 μM compound; 1 hour at 37° C.; read-out: % inhibition of DNA supercoiling activity
Endpoint Label: inhibition at 1 µM (%)
Only the number, expressed in %, is required.

Ask: Could you share which inhibition at 1 µM value was measured for COc1ccc2ncc(C#N)c(CCN3CCC(NC(=O)c4ccc([N+](=O)[O-])c(F)c4)CC3)c2c1 ?
Reply: 71

Ask: // query inhibition at 1 µM value for entry COc1ccc2ncc(C#N)c(CCN3CCC(NCc4ccc(F)c([N+](=O)[O-])c4)CC3)c2c1
Reply: 97.3

Ask: Query: inhibition at 1 µM; subject: COc1ccc2ncc(=O)n(CCN3CCC(NCc4csc([N+](=O)[O-])c4)CC3)c2c1
Reply: 90.6

Ask: Report inhibition at 1 µM for COc1ccc2ncc(C#N)c(CCN3CCC(NCc4cc([N+](=O)[O-])ccn4)CC3)c2c1 please.
Reply: 87.6

Ask: inhibition at 1 µM for COc1ccc2ncc(C#N)c(CCN3CCC(NCc4ccc([N+](=O)[O-])cc4)CC3)c2c1 ?
Reply: 96.5

Ask: Look up inhibition at 1 µM: COc1ccc2ncc(C#N)c(CCN3CCC(NCc4ccc(N(C)C)c([N+](=O)[O-])c4)CC3)c2c1
Reply: 98.1

Ask: Requested field: inhibition at 1 µM. Item: COc1ccc2ncc(C#N)c(CCN3CCC(NCc4ccc(C)c([N+](=O)[O-])c4)CC3)c2c1
Reply: 99.7

Ask: Record request: inhibition at 1 µM value, item COc1ccc2ncc(C#N)c(CCN3CCC(NCc4cc5c(c([N+](=O)[O-])c4)OCO5)CC3)c2c1
Reply: 88.5

Ask: Which inhibition at 1 µM is listed for COc1ccc2ncc(=O)n(CCN3CCC(NCc4ccc(Br)c([N+](=O)[O-])c4)CC3)c2c1 ?
Reply: 89.9

Ask: Dear colleague, I am looking for the recorded inhibition at 1 µM of the following compound: COc1ccc2ncc(=O)n(CCN3CCC(NCc4ccc(C)c([N+](=O)[O-])c4)CC3)c2c1
Reply: 98.7

* * *

Target: E. coli Gyrase (Escherichia coli, UniProt P0AES4+P0AES6)
Construct: purchased Inspiralis
Assay: in vitro Gyrase supercoiling assay (Inspiralis kit)
Format: biochemical
Conditions: 0.1 μM compound; 1 hour at 37° C.; read-out: % inhibition of DNA supercoiling activity
Kindly return Y if reported inhibition at 0.1 µM is no lower than 90%; return N if it is lower.

Ask: Determine whether this compound has inhibition at 0.1 µM no lower than 90%: COc1ccc2ncc(C#N)c(CCN3CCC(NCc4cc5c(c([N+](=O)[O-])c4)OCO5)CC3)c2c1 [VT-03-00077]
Reply: N

Ask: Given the entry COc1ccc2ncc(C#N)c(CCN3CCC(NCc4ccc([N+](=O)[O-])cc4)CC3)c2c1 [VT-03-00045] , answer whether its inhibition at 0.1 µM meets or surpasses 90%.
Reply: Y

Ask: Please indicate if the recorded inhibition at 0.1 µM for COc1ccc2ncc(C#N)c(CCN3CCC(NCc4cc([N+](=O)[O-])ccn4)CC3)c2c1 [VT-03-00079] meets or exceeds 90%.
Reply: N

Ask: // inclusive: inhibition at 0.1 µM at least 90%? input: COc1ccc2ncc(C#N)c(CCN3CCC(NCc4ccc(F)c([N+](=O)[O-])c4)CC3)c2c1 [VT-03-00048]
Reply: Y

Ask: hey, is inhibition at 0.1 µM for this one >= 90%? COc1ccc2ncc(C#N)c(CCN3CCC(NC(=O)c4ccc([N+](=O)[O-])c(F)c4)CC3)c2c1 [VT-03-00055]
Reply: N

From: patent US20170197935A1
